Consider the following molecules; for each one, report its nuclei count.
Experiment: inhibitors of E-selectin induction by TNFa, primary screen, imaging, HUVEC, immunofluorescence, MLSMR starter and 10KST1 sets (AID 487);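 on nuclei count: 100% = median nuclei count of all wells on the same plate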
Conditions: HUVEC TNFalpha-induced E-selectin immunofluorescence imaging, at 2 µM; measured here: cell number, toxicity
Numbers only, in %.

Cc1nn(-c2ccc(F)cc2)c2c1cc(C#N)c1nc3ccccc3n12 | 102
CSc1nc2sc3c(c2c2nnnn12)CCCC3 | 118
Cc1ccc(C)c(S(=O)(=O)n2cnc3ccccc32)c1 | 108
CN(C)S(=O)(=O)Nc1ccc(Br)cc1F | 100
Cc1c(C)c2cc(Cl)c(O)c(CN3CCCC(C)C3)c2oc1=O (stereo not given) | 94.2
Cc1oc2c(CN3CCOCC3)c(O)ccc2c(=O)c1-c1ccc(Br)cc1 | 113
CCN(CC)c1nc(N2CCOCC2)c(C#N)c2c1CN(C)CC2 | 152
Cc1nnc(NC(=O)CSc2cn(CCNC(=O)c3ccccc3)c3ccccc23)s1 | 106

Hey, quick one: what's nuclei count for each of these?
1. COc1ccccc1CN1CCCC(C(=O)N(C)Cc2ccccc2)C1 (stereo not given)
2. COc1ccc(-n2c(SCc3ccc(C#N)cc3)nnc2-c2ccccn2)cc1

Return:
[126, 118]

----------
Assay: inhibitors of E-selectin induction by TNFa, primary screen, imaging, HUVEC, immunofluorescence, MLSMR starter and 10KST1 sets (AID 487);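 on inhibition: signal is fraction of cell area covered by stained E-selectin grains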
Conditions: HUVEC TNFalpha-induced E-selectin immunofluorescence imaging, at 2 µM; stronger effect = higher value
Threshold rule: inhibition greater than or equal to -50% is yes (1); below that, no (0).

CCOC(=O)N1CCN(C(=O)CSc2cc(C)nc3c(-c4ccccc4OC)c(C)nn23)CC1 | yes (1)
COC(=O)C1=C(C)OC(N)=C(C#N)C1c1c(C)nn(-c2ccccc2)c1Cl (stereo not drawn) | yes (1)

Enquiry: Can CCCOc1ccc(NC2=CC(=O)CC(C)(C)C2)cc1 be said to have inhibition at or above -50%?
Return: no (0)

Enquiry: Please do the same for N#CCCNCC1(c2ccccc2)CCCC1 as well.
Return: yes (1)

Enquiry: Please do the same for CC1NC2(C(=O)N(Cc3ccccc3)c3ccccc32)C2C(=O)N(c3ccccc3)C(=O)C12 (stereo not drawn) as well.
Return: yes (1)

----------
Biological target: Voltage-gated potassium channel subunit beta-2 (Rattus norvegicus) (UniProt P62483)
Sequence (P62483 whole entry, looked up): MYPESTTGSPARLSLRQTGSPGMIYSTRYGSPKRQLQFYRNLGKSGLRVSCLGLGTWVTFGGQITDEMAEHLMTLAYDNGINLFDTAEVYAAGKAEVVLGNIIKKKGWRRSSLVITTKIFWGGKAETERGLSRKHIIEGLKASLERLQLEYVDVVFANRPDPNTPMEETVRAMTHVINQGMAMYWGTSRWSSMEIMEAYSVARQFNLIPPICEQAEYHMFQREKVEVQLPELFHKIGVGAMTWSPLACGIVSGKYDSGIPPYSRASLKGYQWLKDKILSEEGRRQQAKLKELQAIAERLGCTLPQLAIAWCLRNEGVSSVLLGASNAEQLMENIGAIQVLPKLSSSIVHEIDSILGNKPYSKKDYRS
Experiment: KvBeta enzyme negative modulators, primary screen, biochemical, NADPH fluorescence (AID 622);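 further: slope of raw intensity against log time taken from 70 to 1610 s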
Conditions: recombinant KvBeta, 4-cyanobenzaldehyde reduction, at 10 µM, stronger effect = higher value
Calls of active or inactive are those of the source.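 How the source made its calls: active means fluorescence slope higher than the sample average by over 3 SD (cut at about -0.22 in these data, passing the limit was not always enough); inactive means the rest.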
Consider the following molecules; for each one, report its fluorescence slope.

Cc1ccc(S(=O)(=O)/C(C#N)=C/c2c(N3CCN(C)CC3)nc3ccccn3c2=O)cc1 | -0.454 (inactive)
CC1(C)Cc2c(c(N3CCOCC3)nc3snc(Br)c23)CO1 | -0.502 (inactive)
Cn1c(Cl)nc2c1c(=O)n(Cc1cccc(Br)c1)c(=O)n2C | -0.507 (inactive)
Cn1c[n+](C)cc1/C=N/O | -0.459 (inactive)

Hey, quick one: what's fluorescence slope for each of these?
1. COc1cccc(NC(=O)N2CCCC2C(=O)NC(C)C)c1 (configuration not stated)
2. CC(C)N(C(=O)CSc1nnc(NC(=O)C2CCC2)s1)C(C)C
3. O=C1N2c3ccccc3CCc3cccc(c32)C1(O)C(F)(F)F (configuration not stated)
4. CCc1ccccc1OCCCCCNCCO
5. CCN(CC)CCn1c(=N)n(CCO)c2ccccc21
6. Cc1cc(C)c2c(C)nn(C3CCCCC3)c2n1
7. COc1ccccc1-n1c(C)nnc1SCC(=O)Nc1cccc(C(C)=O)c1
8. C[N+]1(CCNC(=O)/C=N/O)CCCCC1

Return:
1. -0.601 (inactive)
2. -0.466 (inactive)
3. -0.641 (inactive)
4. -0.303 (inactive)
5. -0.376 (inactive)
6. -0.514 (inactive)
7. -0.355 (inactive)
8. -0.42 (inactive)
